Here the recorded percent inhibition of Factor 7 mRNA, relative to untreated control cells is given for each entry.
tested on: human Factor 7 mRNA; experiment: Dose-dependent antisense inhibition of human Factor 7 in HepB3 cells, transfection with lipofectin; type: cell-based; conditions: 3.125 nM, lipofectin, HepB3 cells, 16 hours
In the oligonucleotide strings, read from the 5' end, every base follows the letter of its sugar. An asterisk marks phosphorothioate; unmarked linkages are phosphodiester. Other units and linkages are bracketed, terminal groups are in braces. A string of capitals states the bases alone. e = 2'-O-(2-methoxyethyl) (MOE); [5mC] = 5-methylcytosine; d = 2'-deoxy (DNA)
READOUT_TYPE: percent inhibition of Factor 7 mRNA, relative to untreated control cells

INSERT INTO assay_data (substance, assay_system, result) VALUES
  ('422140 (antisense eG*eT*eT*e[5mC]*eT*dG*d[5mC]*dA*dG*dG*dA*dG*d[5mC]*dG*dG*e[5mC]*e[5mC]*eT*eA*eA) [compound 422140]', 'human Factor 7 mRNA', '18%'),
  ('422228 (antisense eT*eG*d[5mC]*dA*dT*dG*dG*dT*dG*dA*dT*dG*d[5mC]*dT*dT*e[5mC]*eT*eG*eA*eA) [compound 422228]', 'human Factor 7 mRNA', '17%'),
  ('422292 (antisense eG*eT*dT*d[5mC]*dT*dG*d[5mC]*dA*dG*dG*dA*dG*d[5mC]*dG*dG*e[5mC]*e[5mC]*eT*eA*eA) [compound 422292]', 'human Factor 7 mRNA', '13%'),
  ('407939 (antisense eT*eG*e[5mC]*eA*eG*d[5mC]*d[5mC]*d[5mC]*dG*dG*d[5mC]*dA*d[5mC]*d[5mC]*d[5mC]*eA*eG*e[5mC]*eG*eA) [compound 407939]', 'human Factor 7 mRNA', '17%'),
  ('422150 (antisense eG*e[5mC]*eA*dT*dG*dG*dT*dG*dA*dT*dG*d[5mC]*dT*dT*d[5mC]*dT*dG*eA*eA*eT) [compound 422150]', 'human Factor 7 mRNA', '9%'),
  ('422086 (antisense eT*eG*e[5mC]*eA*eT*dG*dG*dT*dG*dA*dT*dG*d[5mC]*dT*dT*e[5mC]*eT*eG*eA*eA) [compound 422086]', 'human Factor 7 mRNA', '8%');
